System: Staphylococcus aureus SAU.42 (ATCC 29213)
Format: cell-based
Details: ATCC 29213
endpointName: Sa42 MIC (µg/mL)
Answers are plain numbers, in µg/mL.

Observe how each entry below is paired with its result.
Suppose we examine the molecule C[C@H](CC(=O)O)[C@@H]1NC(=O)[C@@H](CO)NC(=O)CNC(=O)[C@H](CC(=O)O)NC(=O)[C@@H](C)NC(=O)[C@H](CC(=O)O)NC(=O)[C@H](CCCN)NC(=O)CNC(=O)[C@@H](NC(=O)[C@H](CC(=O)O)NC(=O)[C@@H](CC(N)=O)NC(=O)[C@H](Cc2c[nH]c3ccccc23)NC(=O)CCCCCC2CCCCC2)[C@@H](C)OC(=O)[C@H](CC(=O)c2ccccc2N)NC1=O [Compound 26] ; what Sa42 MIC value has been reported?
1

// query: CCCCCCCCCCC(=O)N[C@@H](Cc1c[nH]c2ccccc12)C(=O)N[C@H](CC(N)=O)C(=O)N[C@@H](CC(=O)O)C(=O)N[C@@H]1C(=O)NCC(=O)N[C@@H](CCCN)C(=O)N[C@@H](CC(=O)O)C(=O)N[C@H](C)C(=O)N[C@@H](CC(=O)O)C(=O)NCC(=O)N[C@H](CO)C(=O)N[C@@H]([C@H](C)CC(=O)O)C(=O)N[C@@H](CC(=O)c2ccccc2N)C(=O)O[C@@H]1C [Compound 2]
2

Continue with the molecule presented below.
Suppose we examine the molecule CC(C)CCCCCCCCCCC(=O)N[C@@H](Cc1c[nH]c2ccccc12)C(=O)N[C@H](CC(N)=O)C(=O)N[C@@H](CC(=O)O)C(=O)N[C@@H]1C(=O)NCC(=O)N[C@@H](CCCN)C(=O)N[C@@H](CC(=O)O)C(=O)N[C@H](C)C(=O)N[C@@H](CC(=O)O)C(=O)NCC(=O)N[C@H](CO)C(=O)N[C@@H]([C@H](C)CC(=O)O)C(=O)N[C@@H](CC(=O)c2ccccc2N)C(=O)O[C@@H]1C [Compound 11] ; what Sa42 MIC value has been reported?
0.125

// provenance: patent US20150337013A1
